# EXPERIMENTAL TARGET: Bromodomain-containing protein 4 (Homo sapiens, UniProt O60885)
# PROTOCOL: Inhibition of BRD4 BD1 (unknown origin) incubated for 30 mins in presence of fluorescent ligand by TR-FRET method
Listed below: pIC50 values for each entry.
Reminder that pIC50 is minus the log10 of a molar concentration.

See these solved cases before continuing.
* CC(=O)N1c2ccc(C(N)=O)cc2[C@H](Nc2ccc(Cl)cn2)C[C@@H]1C | 6.60
* CCNC(=O)c1ccc2c(c1)[C@H](Nc1ncc(Cl)cn1)C[C@H](C)N2C(C)=O | 7.00
* CC(=O)N1c2ccccc2[C@H](Nc2cnc(C#N)cn2)C[C@@H]1C | 5.90
* CC(=O)N1c2ccc(C(N)=O)cc2[C@H](Nc2cccc(Cl)c2)C[C@@H]1C | 6.70
* CCNC(=O)c1ccc2c(c1)[C@H](Nc1ccc(C#N)cn1)C[C@H](C)N2C(C)=O | 6.70

QUERY: Entry under review: `CCNC(=O)c1ccc2c(c1)[C@H](Nc1ccc(Cl)cn1)C[C@H](C)N2C(C)=O` . Reported pIC50?
RESULT: 6.50

QUERY: Please answer likewise for `CC(=O)N1c2ccc(C(N)=O)cc2[C@H](Nc2ncc(Cl)cn2)C[C@@H]1C`
RESULT: 6.90

QUERY: Please answer likewise for `CCNC(=O)c1ccc2c(c1)[C@H](Nc1cnc(C#N)cn1)C[C@H](C)N2C(C)=O`
RESULT: 6.30

###

# PROTOCOL: AUC(0 to 72 hrs) in KLH-TNP-induced T-cell dependent immunization CD-1 mouse model at 30 mg/kg, po administered every other day for 14 days
# Format: ADME, organism-based
# Design: dose 30 mg/kg, time 14 day, route po
# CONDITIONS: in vivo
PROPERTY NAME: AUC at 336 h (µM·h)
Give the value, in units of µM·h, as a plain number.

QUERY: Entry under review: `CC(=O)N1c2ccc(C(N)=O)cc2[C@H](Nc2ncc(Cl)cn2)C[C@@H]1C` . Reported AUC at 336 h?
RESULT: 69

###

# EXPERIMENTAL TARGET: Bromodomain testis-specific protein (Homo sapiens, UniProt Q58F21)
# PROTOCOL: Binding affinity to BRDT BD2 (unknown origin) assessed as dissociation constant
PROPERTY NAME: Kd (µM)
Give the value, in units of µM, as a plain number.

QUERY: Entry under review: `CC(=O)N1c2ccc(C(N)=O)cc2[C@H](Nc2ncc(Cl)cn2)C[C@@H]1C` . Reported Kd?
RESULT: 0.0251

###

# PROTOCOL: Artificial membrane permeability of the compound
# Type: ADME
# CONDITIONS: PAMPA; read-out: permeability
Listed below: Papp values for each entry.
Give the value, in units of ×10⁻⁶ cm/s, as a plain number.

* CC(=O)N1c2ccccc2[C@H](Nc2cnc(C#N)cn2)C[C@@H]1C | 32
* CC(=O)N1c2ccc(C(N)=O)cc2[C@H](Nc2cccc(Cl)c2)C[C@@H]1C | 40
* CC(=O)N1c2ccc(C#N)cc2[C@H](Nc2ccc(C#N)cn2)C[C@@H]1C | 31
* CC(=O)N1c2ccc(C(N)=O)cc2[C@H](Nc2ccc(C)cn2)C[C@@H]1C | 8.2
* CCNC(=O)c1ccc2c(c1)[C@H](Nc1ccc(Cl)cn1)C[C@H](C)N2C(C)=O | 35

QUERY: Entry under review: `CC(=O)N1c2ccccc2[C@H](Nc2ccc(C#N)cn2)C[C@@H]1C` . Reported Papp?
RESULT: 48

QUERY: Please answer likewise for `CCNC(=O)c1ccc2c(c1)[C@H](Nc1cnc(C#N)cn1)C[C@H](C)N2C(C)=O`
RESULT: 0.3

QUERY: Please answer likewise for `CC(=O)N1c2ccccc2[C@H](Nc2cnc(C)cn2)C[C@@H]1C`
RESULT: 54

QUERY: Please answer likewise for `CC(=O)N1c2ccc(F)cc2[C@H](Nc2ccc(C#N)cn2)C[C@@H]1C`
RESULT: 51

QUERY: Please answer likewise for `CC(=O)N1c2ccc(F)cc2[C@H](Nc2cnc(C#N)cn2)C[C@@H]1C`
RESULT: 30

QUERY: Please answer likewise for `CC(=O)N1c2ccc(C(N)=O)cc2[C@H](Nc2ccc(Cl)cn2)C[C@@H]1C`
RESULT: 15

QUERY: Please answer likewise for `CCNC(=O)c1ccc2c(c1)[C@H](Nc1ccc(C)cn1)C[C@H](C)N2C(C)=O`
RESULT: 25

QUERY: Please answer likewise for `CCNC(=O)c1ccc2c(c1)[C@H](Nc1ccc(F)cn1)C[C@H](C)N2C(C)=O`
RESULT: 23

QUERY: Please answer likewise for `CC(=O)N1c2ccc(C(N)=O)cc2[C@H](Nc2ncc(Cl)cn2)C[C@@H]1C`
RESULT: 6.8

QUERY: Please answer likewise for `CCNC(=O)c1ccc2c(c1)[C@H](Nc1ccc(C#N)cn1)C[C@H](C)N2C(C)=O`
RESULT: 4.6

QUERY: Please answer likewise for `CC(=O)N1c2ccc(F)cc2[C@H](Nc2cnc(C)cn2)C[C@@H]1C`
RESULT: 52

QUERY: Please answer likewise for `CC(=O)N1c2ccc(C#N)cc2[C@H](Nc2cnc(C#N)cn2)C[C@@H]1C`
RESULT: 19

###

# PROTOCOL: Solubility of the compound in saline by CLND method
# Assay type: physicochemical
Listed below: solubility kinetic values for each entry.

• CC(=O)N1c2ccc(C(N)=O)cc2[C@H](Nc2ccc(C)cn2)C[C@@H]1C = ≥ 143 µg/mL
• CCNC(=O)c1ccc2c(c1)[C@H](Nc1cnc(C#N)cn1)C[C@H](C)N2C(C)=O = ≥ 73 µg/mL
• CCNC(=O)c1ccc2c(c1)[C@H](Nc1ccc(F)cn1)C[C@H](C)N2C(C)=O = ≥ 126 µg/mL

As a next step, examine the compound that follows.
QUERY: Entry under review: `CC(=O)N1c2ccc(F)cc2[C@H](Nc2cnc(C#N)cn2)C[C@@H]1C` . Reported solubility kinetic?
RESULT: 99 µg/mL

###

# PROTOCOL: Terminal half life in Beagle dog blood at 3 mg/kg, po or 1.0 mg/kg, iv by LC-MS/MS analysis
# Assay type: ADME, organism-based, Canis lupus familiaris
# CONDITIONS: read-out: beta t1/2 (converted)
PROPERTY NAME: half-life (h)
Give the value, in units of h, as a plain number.

QUERY: Entry under review: `CC(=O)N1c2ccc(C(N)=O)cc2[C@H](Nc2ncc(Cl)cn2)C[C@@H]1C` . Reported half-life?
RESULT: 1.8

###

# EXPERIMENTAL TARGET: Bromodomain-containing protein 3 (Homo sapiens)
# Sequence (Q15059 whole entry): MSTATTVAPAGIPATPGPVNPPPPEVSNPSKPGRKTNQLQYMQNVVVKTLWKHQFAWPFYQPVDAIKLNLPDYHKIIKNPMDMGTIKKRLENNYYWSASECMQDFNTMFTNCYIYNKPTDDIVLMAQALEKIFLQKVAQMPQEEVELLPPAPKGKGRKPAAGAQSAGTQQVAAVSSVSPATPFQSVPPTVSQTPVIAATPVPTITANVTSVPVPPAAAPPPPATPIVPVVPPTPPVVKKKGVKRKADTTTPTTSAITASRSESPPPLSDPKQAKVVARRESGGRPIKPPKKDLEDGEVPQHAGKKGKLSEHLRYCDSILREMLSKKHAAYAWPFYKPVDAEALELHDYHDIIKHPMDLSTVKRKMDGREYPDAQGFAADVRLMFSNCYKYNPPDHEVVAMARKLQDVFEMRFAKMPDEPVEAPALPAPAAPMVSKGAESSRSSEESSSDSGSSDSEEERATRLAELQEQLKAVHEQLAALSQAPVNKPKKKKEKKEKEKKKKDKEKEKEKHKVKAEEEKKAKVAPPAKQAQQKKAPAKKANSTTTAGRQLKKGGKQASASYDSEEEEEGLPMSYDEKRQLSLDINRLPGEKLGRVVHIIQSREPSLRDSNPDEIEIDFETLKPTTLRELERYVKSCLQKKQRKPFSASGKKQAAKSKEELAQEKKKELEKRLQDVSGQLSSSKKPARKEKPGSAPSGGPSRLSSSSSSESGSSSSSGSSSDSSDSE
# PROTOCOL: Binding affinity to BRD3 BD1 (unknown origin) assessed as dissociation constant
PROPERTY NAME: pKd
Reminder that pKd is minus the log10 of a molar concentration.

QUERY: Entry under review: `CC(=O)N1c2ccc(C(N)=O)cc2[C@H](Nc2ncc(Cl)cn2)C[C@@H]1C` . Reported pKd?
RESULT: 7.60

###

# PROTOCOL: Cmax in KLH-TNP-induced T-cell dependent immunization CD-1 mouse model at 30 mg/kg, po administered every other day for 14 days
# Assay type: ADME, organism-based
# Set-up: dose 30 mg/kg, time 14 day, route po
# CONDITIONS: in vivo
PROPERTY NAME: Cmax (µM)
Give the value, in units of µM, as a plain number.

QUERY: Entry under review: `CC(=O)N1c2ccc(C(N)=O)cc2[C@H](Nc2ncc(Cl)cn2)C[C@@H]1C` . Reported Cmax?
RESULT: 8.5

###

# EXPERIMENTAL TARGET: Bromodomain-containing protein 4 (Homo sapiens, UniProt O60885)
# PROTOCOL: Inhibition of BRD4 BD2 (unknown origin) incubated for 30 mins in presence of fluorescent ligand by TR-FRET method
PROPERTY NAME: IC50

• CCNC(=O)c1ccc2c(c1)[C@H](Nc1ccc(Cl)cn1)C[C@H](C)N2C(C)=O = 79.4 nM
• CCNC(=O)c1ccc2c(c1)[C@H](Nc1ncc(Cl)cn1)C[C@H](C)N2C(C)=O = 79.4 nM
• CC(=O)N1c2ccccc2[C@H](Nc2cnc(C)cn2)C[C@@H]1C = 501 nM
• CC(=O)N1c2ccc(C(N)=O)cc2[C@H](Nc2ccc(C)cn2)C[C@@H]1C = 158 nM

QUERY: Entry under review: `CC(=O)N1c2ccc(F)cc2[C@H](Nc2cnc(C#N)cn2)C[C@@H]1C` . Reported IC50?
RESULT: 1000 nM

###

# EXPERIMENTAL TARGET: Bromodomain testis-specific protein (Homo sapiens, UniProt Q58F21)
# PROTOCOL: Binding affinity to BRDT BD1 (unknown origin) assessed as dissociation constant
PROPERTY NAME: Kd (nM)
Give the value, in units of nM, as a plain number.

QUERY: Entry under review: `CC(=O)N1c2ccc(C(N)=O)cc2[C@H](Nc2ncc(Cl)cn2)C[C@@H]1C` . Reported Kd?
RESULT: 25.1

Hello, the source for this data is ChEMBL document CHEMBL5154688, in case you need it.
